Molecular target: Acetylcholinesterase (Homo sapiens)
Sequence (P22303 whole entry): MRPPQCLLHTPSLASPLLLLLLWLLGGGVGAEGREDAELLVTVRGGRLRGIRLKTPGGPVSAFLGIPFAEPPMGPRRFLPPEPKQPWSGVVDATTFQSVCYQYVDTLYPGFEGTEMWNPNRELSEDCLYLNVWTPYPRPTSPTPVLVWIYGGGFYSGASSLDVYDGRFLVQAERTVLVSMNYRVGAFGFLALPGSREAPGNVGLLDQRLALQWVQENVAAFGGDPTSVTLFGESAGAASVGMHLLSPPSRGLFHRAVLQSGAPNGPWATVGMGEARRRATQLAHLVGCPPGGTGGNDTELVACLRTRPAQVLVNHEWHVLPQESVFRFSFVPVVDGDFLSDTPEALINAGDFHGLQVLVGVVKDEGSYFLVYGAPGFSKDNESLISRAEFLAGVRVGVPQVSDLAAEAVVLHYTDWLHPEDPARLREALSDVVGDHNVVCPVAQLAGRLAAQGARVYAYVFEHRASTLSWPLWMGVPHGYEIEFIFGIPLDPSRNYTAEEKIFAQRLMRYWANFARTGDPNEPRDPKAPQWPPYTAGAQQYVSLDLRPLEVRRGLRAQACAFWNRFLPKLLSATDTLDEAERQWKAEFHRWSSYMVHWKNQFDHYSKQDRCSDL
Strictly below 0.2 µM in IC50: criterion met. Otherwise: criterion not met.

Below are worked cases with known answers.
Request: Does the reported IC50 of "Cc1nc(C(=O)NCCCCCCCCNc2c3c(nc4ccccc24)CCCC3)cc2c1[nH]c1ccccc12" stay below 0.2 µM?
Response: criterion met

Request: Does the reported IC50 of "CCc1nc(C(=O)NCCCCCCNc2c3c(nc4ccccc24)CCCC3)cc2c1[nH]c1ccccc12" stay below 0.2 µM?
Response: criterion met

Request: Does the reported IC50 of "CC(=O)N[C@@H](Cc1c[nH]c2ccccc12)C(=O)NCCCCCCNc1c2c(nc3ccccc13)CCCC2" stay below 0.2 µM?
Response: criterion met

Request: Does the reported IC50 of "O=C(NCCCCCCNc1c2c(nc3ccccc13)CCCC2)c1cc2c([nH]c3ccccc32)c(-c2ccccc2)n1" stay below 0.2 µM?
Response: criterion met

Next:
Request: Does the reported IC50 of "CC(C)(C)OC(=O)N[C@@H](Cc1c[nH]c2ccccc12)C(=O)NCCCCCCNc1c2c(nc3ccccc13)CCCC2" stay below 0.2 µM?
Response: criterion met

###

Test: in vitro
Conditions: PAMPA
Strictly below 5 ×10⁻⁶ cm/s in Papp: t. Otherwise: f.

Request: Does the reported Papp of "N[C@@H](Cc1c[nH]c2ccccc12)C(=O)NCCCCCCNc1c2c(nc3ccccc13)CCCC2" stay below 5 ×10⁻⁶ cm/s?
Response: t

Next:
Request: Does the reported Papp of "NCCc1ccc(O)c(O)c1" stay below 5 ×10⁻⁶ cm/s?
Response: t

Request: Does the reported Papp of "CC(=O)[C@H]1CC[C@H]2[C@@H]3CCC4=CC(=O)CC[C@]4(C)[C@H]3CC[C@]12C" stay below 5 ×10⁻⁶ cm/s?
Response: t

Request: Does the reported Papp of "CC(C)(C)OC(=O)N[C@@H](Cc1c[nH]c2ccccc12)C(=O)NCCCCCCNc1c2c(nc3ccccc13)CCCC2" stay below 5 ×10⁻⁶ cm/s?
Response: f

Request: Does the reported Papp of "Clc1cccc(Cl)c1N=C1NCCN1" stay below 5 ×10⁻⁶ cm/s?
Response: t

Request: Does the reported Papp of "CC(C)(C)OC(=O)N1Cc2[nH]c3ccccc3c2C[C@H]1C(=O)NCCCCCCNc1c2c(nc3ccccc13)CCCC2" stay below 5 ×10⁻⁶ cm/s?
Response: f

###

Target: Amyloid-beta precursor protein (Homo sapiens)
Assay: Inhibition of amyloid beta (1 to 42) (unknown origin) self-induced aggregation at 20 uM after 46 to 48 hrs by thioflavin-T based fluorometric assay
Output yes for inhibition not less than 40%; output no otherwise.

Request: Reported inhibition reaches at least 40% for "Cc1nc(C(=O)NCCCCCCCCCCNc2c3c(nc4ccccc24)CCCC3)cc2c1[nH]c1ccccc12" ?
Response: no

Request: Reported inhibition reaches at least 40% for "O=C(NCCCCCCNc1c2c(nc3ccccc13)CCCC2)c1cc2c(cn1)[nH]c1ccccc12" ?
Response: yes

###

Biological target: Cholinesterase (Equus caballus, UniProt P81908)
Sequence (P81908 whole entry): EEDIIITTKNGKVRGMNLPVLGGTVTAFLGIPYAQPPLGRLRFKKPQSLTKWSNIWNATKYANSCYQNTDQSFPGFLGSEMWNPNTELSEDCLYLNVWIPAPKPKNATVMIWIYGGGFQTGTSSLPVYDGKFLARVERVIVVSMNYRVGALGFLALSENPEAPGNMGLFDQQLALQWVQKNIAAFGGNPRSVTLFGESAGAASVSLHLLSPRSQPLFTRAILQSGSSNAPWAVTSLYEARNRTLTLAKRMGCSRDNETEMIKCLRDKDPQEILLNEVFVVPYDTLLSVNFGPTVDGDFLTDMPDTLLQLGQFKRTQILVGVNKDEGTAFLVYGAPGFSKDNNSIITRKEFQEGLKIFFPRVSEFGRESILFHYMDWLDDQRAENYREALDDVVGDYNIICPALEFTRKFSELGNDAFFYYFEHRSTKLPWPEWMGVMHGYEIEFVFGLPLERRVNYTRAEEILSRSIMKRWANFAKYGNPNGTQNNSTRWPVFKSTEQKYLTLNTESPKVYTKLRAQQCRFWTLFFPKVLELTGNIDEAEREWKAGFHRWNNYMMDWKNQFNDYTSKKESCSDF
quantity-name: log10(IC50) (log10 of the value in nM)
Each number you see is log10 of IC50, and the unit inside the log is nM.

As a guide, the following entries are already answered.
Request: Query for Cholinesterase (Equus caballus, UniProt P81908): what log10(IC50) does the record show for "O=C(NCCCCCCNc1c2c(nc3ccccc13)CCCC2)c1cc2c(cn1)[nH]c1ccccc12" ?
Response: 1.62

Request: Query for Cholinesterase (Equus caballus, UniProt P81908): what log10(IC50) does the record show for "Cc1nc(C(=O)NCCNc2c3c(nc4ccccc24)CCCC3)cc2c1[nH]c1ccccc12" ?
Response: 2.73

Request: Query for Cholinesterase (Equus caballus, UniProt P81908): what log10(IC50) does the record show for "CC(C)(C)OC(=O)N1Cc2[nH]c3ccccc3c2C[C@H]1C(=O)NCCCCCCNc1c2c(nc3ccccc13)CCCC2" ?
Response: 0.88

Next:
Request: Query for Cholinesterase (Equus caballus, UniProt P81908): what log10(IC50) does the record show for "O=C(NCCCCCCNc1c2c(nc3ccccc13)CCCC2)[C@@H]1Cc2c([nH]c3ccccc23)CN1" ?
Response: 1.60

Request: Query for Cholinesterase (Equus caballus, UniProt P81908): what log10(IC50) does the record show for "CC(C)(C)OC(=O)N[C@@H](Cc1c[nH]c2ccccc12)C(=O)NCCCCCCNc1c2c(nc3ccccc13)CCCC2" ?
Response: 0.63

Request: Query for Cholinesterase (Equus caballus, UniProt P81908): what log10(IC50) does the record show for CC1N[C@H](C(=O)NCCCCCCNc2c3c(nc4ccccc24)CCCC3)Cc2c1[nH]c1ccccc21 (stereo partly drawn) ?
Response: 2.38

The values you see were collected from ChEMBL document CHEMBL3351298.
